Target: Human immunodeficiency virus type 1 integrase (Human immunodeficiency virus 1, UniProt Q7ZJM1)
Sequence (Q7ZJM1 whole entry): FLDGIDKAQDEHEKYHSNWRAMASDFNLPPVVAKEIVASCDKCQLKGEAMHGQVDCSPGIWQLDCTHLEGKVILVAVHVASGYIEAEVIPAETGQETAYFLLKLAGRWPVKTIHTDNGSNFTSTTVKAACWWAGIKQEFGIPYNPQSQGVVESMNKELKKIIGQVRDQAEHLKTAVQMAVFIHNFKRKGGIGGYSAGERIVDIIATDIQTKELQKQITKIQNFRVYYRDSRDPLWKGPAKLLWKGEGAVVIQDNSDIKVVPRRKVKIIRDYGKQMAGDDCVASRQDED
Assay: Inhibition of HIV1 integrase strand transfer activity
MEASURE NAME: IC50 (µM)

**Q:** Query (compound): O=C(O)/C(O)=C/C(=O)c1cccc(NC(=O)c2ccccc2O)c1 ; field requested: IC50
**A:** 11

**Q:** Next compound: COc1cccc(C(=O)Nc2cccc(C(=O)/C=C(\O)C(=O)O)c2)c1
**A:** 12

**Q:** Next compound: COc1ccc(/C=C/C(=O)Nc2cccc(C(=O)/C=C(\O)C(=O)O)c2)cc1
**A:** 11

* * *

Target: UniProtKB Q7ZJM1
Assay: Inhibition of HIV1 integrase 3' processing activity
MEASURE NAME: IC50

**Q:** Query (compound): O=C(O)/C(O)=C/C(=O)c1cccc(NC(=O)c2ccccc2O)c1 ; field requested: IC50
**A:** 41 µM

**Q:** Next compound: O=C(O)/C(O)=C/C(=O)c1cccc(NC(=O)c2ccco2)c1
**A:** > 100 µM

Now examine the next entry.
**Q:** Query (compound): O=C(O)/C(O)=C/C(=O)c1cccc(NC(=O)c2ccccc2)c1 ; field requested: IC50
**A:** > 100 µM
